Assay: EWS/Fli-driven NR0B1 reporter inhibitors, primary screen, A673 cells, NR0B1 luciferase, luminescence, MLPCN library (AID 651661);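 further: firefly luciferase signal divided by Alamar Blue viability fluorescence both relative to DMSO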
Settings: viability-normalised, at 12.6 µM, active compounds read high
In all, about 350,000 compounds went through this assay and about 2,300 (0.66%) were called active. The sample as a whole holds a higher share of actives than the screen did.
quantity: inhibition (%)
Give bare numbers, in %.

| compound | unit_symbol | inhibition |
| --- | --- | --- |
| C[C@]12CCC3C(CC[C@H]4C[C@@H](O)CC[C@]34C)C1CC[C@@H]2O (stereo partly drawn) | % | -5.07 |

Hey, can you go through the list below and give me inhibition for every item?
1. CCOC(=O)[C@]12Cc3cc(OC)ccc3[C@H]1N(C(C)C)C(=O)c1ccccc12
2. O=c1[nH]c2ccccc2n1C1CCN(C(c2ccnc3ccccc23)c2nnnn2Cc2ccccc2)CC1 (stereo not drawn)
3. OC[C@@H]1[C@H]2c3ccccc3NC[C@H]2N1Cc1cccnc1
4. O=C(O)COc1ccccc1/C=C1\C(=O)NC(=O)N(CCC2=CCCCC2)C1=O
5. CC(=O)NCC1=C(c2ccc3ccccc3c2)C[C@@H]2CC[C@H]1N2Cc1ccco1
6. O=C1NC(=O)N(Cc2ccco2)C(=O)/C1=C\c1ccc(-c2ccc(F)cc2)o1
7. C[C@]12CCC3C(CC[C@H]4C[C@@H](O)CC[C@]34C)C1C[C@@H](O)[C@H]2O (stereo partly drawn)

16.8
6.09
3.74
2.19
9.45
20
0.611

* * *

Assign inhibition to each entry below.
Assay: EWS/Fli-driven NR0B1 reporter inhibitors, primary screen, A673 cells, NR0B1 luciferase, luminescence, MLPCN library (AID 651661);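 further: firefly luciferase signal divided by Alamar Blue viability fluorescence both relative to DMSO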
Details: viability-normalised, at 12.6 µM, active compounds read high
The campaign covered roughly 350,000 compounds. About 2,300 (0.66%) were called active. The sample holds actives, similar compounds and a random draw of the others, so the mix is not that of the screen.

| compound | inhibition |
| --- | --- |
| COC(=O)C[C@@H]1CC[C@@H]2NC[C@@H](O)COC[C@H]2O1 | -11.3% (inactive) |
| C[C@@H]1CN([C@H](C)CO)C(=O)CCCn2cc(nn2)CO[C@@H]1CN(C)C(=O)Oc1cccc2ccccc12 | 4.15% (inactive) |
| CC1C(=O)OC2CCN3CC=C(COC(=O)C(C)(O)C1(C)O)C23 (stereo not given) | 0.572% (inactive) |
| CCN(CC)C(=O)[C@@H]1C=C2c3cccc4[nH]c(Br)c(c34)C[C@H]2N(C)C1 | -3.36% (inactive) |

Would you kindly look at the next entry?
Quick one: give measured inhibition for O=C(NCC1=C(c2ccc3ccccc3c2)C[C@@H]2CC[C@H]1N2Cc1ccco1)c1cccs1
2.23% (inactive)
